Below is a list of entries, each paired with its recorded melting point value.

Example cases with answers are listed next.
O=C(O)c1nn(-c2ccc(Cl)cc2Cl)c(-c2ccc(Cl)cc2)c1COCCO	182 °C
Cc1oncc1C(=O)N1CCCCC1	40 to 43 °C
COc1ccc(CN2CCC(c3cn(CCc4ccsc4)c4cc(F)ccc34)CC2)cc1C(=O)O	228 to 229 °C
CCCCCCCCC(=S)n1c(-c2cscn2)nc2ccccc21	58 to 59 °C

Please look at the following molecule next.
Assign melting point to the following record: `CS(=O)(=O)c1ccc(C(=O)N[C@H]2CC[C@H](CCN3CCC(c4cccc5c4CCO5)CC3)CC2)cc1`
236 °C

###

Reported melting point values for the following compounds.

COc1c(C)c2c(c(O)c1CC1=C(C)C(CC(=O)O)CC1)C(=O)OC2 (centres undefined)	153 to 159 °C
CCCN(C1=C(O)CC(C2CCCC2)(C2CCCC2)OC1=O)c1cccc(NS(=O)(=O)c2cccs2)c1	92 to 95 °C
FC(F)C(F)(F)Oc1cccc(Nc2nccc(-c3ccc(Cl)cc3)n2)c1	133 to 135 °C

Quote melting point reported for `CCCCNc1cc(Cl)c2c(c1)C(c1ccccc1F)=NC(C)(C)C(=O)N2C` please.
113 to 115 °C

Please indicate melting point recorded for `O=C(Nc1cccnn1)N1CCN(c2nccc(-c3cc(F)ccc3F)n2)CC1`
271 to 272 °C

Determine from records and report melting point for `CCCCCCOc1ccc2cc([C@H]3CC[C@H](CCCCCC)CC3)ccc2c1`
48 °C

For the compound `COC(=O)c1ccc(OC)c(NC(=NCl)c2ccccc2)c1` , give its measured melting point value.
120 °C

Answer with the recorded melting point for the compound listed here: `COC(=O)C(=O)c1ccc(OCCOc2ccc(S(N)(=O)=O)cc2)cc1`
136 to 137 °C

Respond only with melting point recorded for O=C1CCCCCC1C(C[N+](=O)[O-])c1ccc(OCc2ccccc2)cc1 (racemic)
120 to 121 °C

Tell me melting point reported for CCCCCCCCC=CCCCCCCCCN1CC(C(=O)OC)N(S(=O)(=O)c2ccc(-c3ccc(Br)cc3)cc2)CC1=O (centres undefined)
108 °C

State its melting point: `CC1(C)OC(=S)Nc2ccc(-c3cc(Cl)cc(C#N)c3)cc21`
249 to 251 °C

Report measured melting point; entry is Cc1ccc(NC(=S)NCc2ccc3c(c2)CN(C2CCC(=O)NC2=O)C3=O)cc1Cl (centres undefined)
240 to 242 °C

Report melting point for `Nc1ccc2nc(-c3ccccc3)cc(OCC(=O)N3CCOCC3)c2c1`
194 °C

Annotate the compound `CC(C)c1ccc(S(=O)(=O)n2c(COC(C)(C)C(=O)O)cc3cc(Cl)ccc32)cc1` with its measured melting point.
60 °C

Supply recorded melting point for `Nc1ccc(Nc2c(NCc3ccccc3)cc(C(=O)O)cc2S(=O)(=O)Nc2ccc(N)cc2)cc1` here.
238 °C

Return melting point (reported value) for this compound: `CC(C)(C)C(=O)OCc1nc(-c2ccc3c(c2)Nc2ccccc2S3)cs1`
120 to 122 °C

Look up and state reported melting point for `COCCN(C)Cc1ccnc2c(NC(=O)c3c(Cl)cccc3Cl)cccc12`
128 to 134 °C

// fetch melting point given entry `Cc1cc2c(s1)Nc1ccccc1N=C2N1CCN(C)[C@@H](COc2ccccc2)C1`
74 to 88 °C

Give me measured melting point, please, for this compound: `COc1ccc(C(=O)C(=O)c2ccncc2)cc1OC1CCCC1`
117 to 119 °C

Using the record for O=C1[C@H]2CCC[C@H]2N(C(=O)Cn2ccnc2)c2ccccc2N1Cc1ccccc1 (relative stereo) , state its measured melting point.
183 to 184 °C

Give the reported value of melting point for this record: `CN(c1cc(OC(F)(F)F)cc2cc(C(=O)NCCSC(c3ccccc3)(c3ccccc3)c3ccccc3)[nH]c12)S(=O)(=O)c1cccs1`
222 to 223 °C

For the compound `Cc1ccc(-n2c(=O)c(O)nc3cccnc32)cc1` , report melting point.
> 300 °C

Identify measured melting point corresponding to `O=C(Nc1cc(Cl)c(F)cc1-c1ccccc1)c1cccnc1Cl`
131 to 136 °C

Consider the compound `CC(C)(C)CC(C)(C)c1ccc(O)c(-n2nc3ccc(C(F)(F)F)cc3n2)c1` and give its recorded melting point.
80 to 81 °C

###

# melting point annotations

Cc1cc(C)cc(NCc2ccc3nc(NC4CCN(CCS(N)(=O)=O)CC4)n(Cc4nc(C)ccc4O)c3c2)c1	142 °C
CCOC(=O)c1c(C)nc2c(nc(C)n2CC)c1OCC	62 to 65 °C
COc1ncnc(OC)c1N	94 to 96 °C
COc1ccc(C(=O)c2ccc3cc(OC)ccc3c2-c2ccccc2)cc1	122 to 124 °C
CCCOc1cc2c(cc1C1CCCc3oc(/C=C/C(=O)O)cc31)C(C)(C)CCC2(C)C (configuration not stated)	195 to 196 °C

Output measured melting point for this item: `CC(C)(C)OC(=O)N[C@@H](Cc1ccccc1)C(=O)N[C@H]1CCOC1=O`
132 to 133 °C

Find the measured melting point of OC(C1=NCC2CCCCN12)(c1ccccc1)c1ccccc1 (configuration not stated) and report it.
131 to 133 °C

Supply melting point value. Item: `CCN1CCN(Cc2ccc(C(=O)Nc3ccc(C)c(Nc4nccc(-c5cccnc5)n4)c3)cc2)CC1`
210 °C

Using known records, supply melting point for `ONC(=S)C=Cc1cccc2ccccc12`
129 to 130 °C

Specify measured melting point for `Nc1cc(C(=O)c2ccccc2)ccc1N1CCCCC1` .
99 to 100 °C

Give the reported value of melting point for this record: `CCOC(=O)c1cc(SC#N)c(Br)cc1N`
149 to 150 °C

Identify melting point associated with the compound `COc1ccc(C(=O)N(C(=O)c2ccc(OC)cc2)c2nc3ccc(N4CCOCC4)cc3c(NCc3ccccc3)c2C#N)cc1`
157 °C

Note melting point for the compound shown: `CCCCOc1c(\C(C)=C/C=C/C(C)=C/C(=O)O)cc(C(C)(C)C)cc1C(C)(C)C`
148 to 151 °C

Please look at this compound and report its melting point: `N#Cc1cc(F)c(NC(=O)C=C(N)C(F)(F)F)cc1F`
127 °C

Give melting point for the following compound: `Cc1nc(N2CCN(Cc3ccccc3)C2=N)sc1C(=O)NCc1ccccc1`
125 to 126 °C

Entry CC(C=O)Oc1ccc(Cl)cc1Cl (configuration not stated) needs its melting point filled in; supply it.
87 to 88 °C

Tell me its melting point given `CN(C)C(=O)c1nc2cnc3ccccc3c2[nH]1` as the entry.
284 to 286 °C

###

We begin with a simple list: items and their reported melting point.
Please reply with the bare figure in °C and do not write the unit itself.

O=c1oc2c(c(O)c1-c1ccccc1)CCCC2c1ccccc1 (stereo not given)	185

For the compound O=C(O)C1=Cc2cc(Cl)c(Oc3ccccc3Cl)cc2OC1C(F)(F)F (stereo not given) , give its reported melting point.
199

###

reportedMetric: melting point

Worked cases, melting point given:
CC(O)c1ccc(Cc2cn(-c3ccc(F)cc3)c3ncccc3c2=O)cc1 (stereo not given)	197 to 198 °C
CS(=O)(=O)c1ccc(-c2nc(C(F)(F)F)nc(NN)c2-c2ccc(S(=O)(=O)NN)cc2)cc1	203 to 206 °C
CCOC(=O)C1=C(C)NC(COC(=O)CCN(C)Cc2ccccc2)=C(C(=O)OCC)C1c1ccccc1Cl (stereo not given)	86 to 87 °C
N#Cc1ccc(OCC(O)CN2CC3CC(C2)CN(C(=O)OCc2ccc([N+](=O)[O-])cc2)C3)cc1 (stereo not given)	165 to 166 °C
Cc1ccc(-c2nc(=S)n(Cc3ccccc3)[nH]2)cc1	234 to 235 °C

Specify reported melting point for the compound shown: OC(c1ccc(F)cc1)(c1ccc(F)cc1)C1CCN(Cc2ccccc2)C1 (stereo not given)
99 to 100 °C

Output measured melting point for this item: `Cc1nc2c(c(=O)[nH]1)-c1ccc(Cl)cc1C(c1ccccc1)=[N+]([O-])C2`
219 to 221 °C

# return recorded melting point for entry `COc1ccc2sc3c(c2c1)OCCNC3=O`
264 to 265 °C

Annotate the compound `COc1ccccc1-n1c(=O)[nH]c2c(C(N)=O)nc(-c3ccc(O)cc3)nc21` with its measured melting point.
362 to 363 °C

Read off the recorded melting point for `CC(C)(C)c1cc(CCC(=O)NCCNc2c(Cl)c(Cl)nc(Cl)c2C#N)cc(C(C)(C)C)c1O`
185 to 189 °C

Supply melting point value. Item: `O=C(O)COc1ccc2c(c1)Cc1sc(SCCC(c3ccccc3)c3ccccc3)nc1-2`
135 to 137 °C

Fill in melting point for record `CCOC(=O)CN(CC(=O)OCC)C(=O)c1cc(OCCCCCCOc2ccc(-c3ccccc3)cc2)ccc1OCc1ccccc1`
60 to 62 °C

Return melting point for the following compound: `O=C(CBr)Nc1c(C(F)(F)F)cc(OCc2ccccc2)cc1C(F)(F)F`
173 to 175 °C

Identify measured melting point associated with `CC1(C)OCCCOc2c[nH]cc2OCCCOC1(C)C`
48 to 50 °C

Return melting point for the following compound: `Cc1ccc(-c2ccc3ccccc3c2C(=O)N(C)C)cc1`
145 to 146 °C

Supply reported melting point belonging to this compound: `Cc1cccc(C)c1NC(=O)CSc1cc(C(C)(C)C)c(O)c(C(C)(C)C)c1`
138 °C

Please report melting point for the following compound: O=C(O)CCCCCCCCN1C(=O)C(c2ccccc2)N(c2ccccc2)C1=O (stereo not given)
112 °C
